Consider the following molecules and their measured Emax readings.
# study-target: UniProt P28223
# Sequence (P28223 whole entry): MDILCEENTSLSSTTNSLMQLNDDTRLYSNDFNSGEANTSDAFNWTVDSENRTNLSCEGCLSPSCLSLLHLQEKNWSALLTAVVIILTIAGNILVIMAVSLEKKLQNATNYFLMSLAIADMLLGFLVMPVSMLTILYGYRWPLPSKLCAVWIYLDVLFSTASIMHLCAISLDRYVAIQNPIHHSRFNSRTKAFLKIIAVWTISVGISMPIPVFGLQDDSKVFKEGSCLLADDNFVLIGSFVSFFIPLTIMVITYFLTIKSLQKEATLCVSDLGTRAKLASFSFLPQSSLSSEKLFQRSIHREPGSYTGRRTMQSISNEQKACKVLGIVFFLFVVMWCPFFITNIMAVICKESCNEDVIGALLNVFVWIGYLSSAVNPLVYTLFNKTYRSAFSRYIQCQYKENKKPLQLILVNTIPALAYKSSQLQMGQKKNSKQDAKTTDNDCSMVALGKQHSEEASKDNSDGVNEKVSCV
# assay-overview: Calcium mobilization, HEK293 cells expressing human 5-HT2A
# Format: cell-based
# condition-details: HEK293, read-out: 5-HT2A Mobilization of Calcium %Emax
The answer is to be given in %; state only the numeric part.

COc1cc(CCNCc2ccccc2OC)c(OC)cc1Cl [Compound 25C-NBOMe]; 104
COc1cc(CCNCc2ccccc2OC)c(OC)cc1I [Compound 25I-NBOMe]; 108
COc1cc(CCN)c(OC)cc1I; 89
COc1cc(CC(C)N)c(OC)cc1I (centres unmarked) [DOI, reference compound]; 109

Please look at the following molecule next.
Q. Tell me the measured Emax of COc1cc(CCN)c(OC)cc1Cl , please.
A. 95
